What growth AUC was measured for each of the following?
System: Fusobacterium nucleatum subsp. animalis
Assay: growth AUC relative to DMSO control (median of replicates) (fraction); higher = more growth (less inhibition), active = hit call of the paper
Details: 20 µM; 24 h
Form: value (number only, do not type unit).

Lookup: Fill in growth AUC for `O=C(O)COc1ccccc1` tested with Fusobacterium nucleatum subsp. animalis.
Found: 1.01

Lookup: Fill in growth AUC for `CCOP(=S)(OCC)Oc1cc(C)nc(N(CC)CC)n1` tested with Fusobacterium nucleatum subsp. animalis.
Found: 1.01

Lookup: Fill in growth AUC for `Cc1cccc2sc3nncn3c12` tested with Fusobacterium nucleatum subsp. animalis.
Found: 0.988

Lookup: Fill in growth AUC for `CCN(CC)C(=S)[S-].O.O.O.[Na+]` tested with Fusobacterium nucleatum subsp. animalis.
Found: 1.09

Lookup: Fill in growth AUC for CNC(=O)Oc1cc(C)c(S(C)=O)c(C)c1 (configuration not stated) tested with Fusobacterium nucleatum subsp. animalis.
Found: 1.09

Lookup: Fill in growth AUC for `COP(=S)(OC)Oc1ccc([N+](=O)[O-])c(C)c1` tested with Fusobacterium nucleatum subsp. animalis.
Found: 0.994

Lookup: Fill in growth AUC for `CCOP(=S)(OCC)SCSc1ccc(Cl)cc1` tested with Fusobacterium nucleatum subsp. animalis.
Found: 1.07

Lookup: Fill in growth AUC for `Nc1cc(Cl)cc(Cl)c1` tested with Fusobacterium nucleatum subsp. animalis.
Found: 1.13

Lookup: Fill in growth AUC for `CCOP(=S)(OCC)Oc1cnccn1` tested with Fusobacterium nucleatum subsp. animalis.
Found: 1.01

Lookup: Fill in growth AUC for `CCOC(=O)Nc1cccc(OC(=O)Nc2ccccc2)c1` tested with Fusobacterium nucleatum subsp. animalis.
Found: 0.894

Lookup: Fill in growth AUC for COCc1cnc(C2=NC(C)(C(C)C)C(=O)N2)c(C(=O)O)c1 (configuration not stated) tested with Fusobacterium nucleatum subsp. animalis.
Found: 1.05

Lookup: Fill in growth AUC for OC[C@@H](O)[C@H]1O[C@@H]2O[C@H](C(Cl)(Cl)Cl)O[C@@H]2[C@H]1O (mixture of isomers) tested with Fusobacterium nucleatum subsp. animalis.
Found: 0.83

Lookup: Fill in growth AUC for CCCCC(O)(Cn1cncn1)c1ccc(Cl)cc1Cl (configuration not stated) tested with Fusobacterium nucleatum subsp. animalis.
Found: 1.04

Lookup: Fill in growth AUC for `N#Cc1cc(Br)c(O)c(Br)c1` tested with Fusobacterium nucleatum subsp. animalis.
Found: 0.864

Lookup: Fill in growth AUC for `CCc1cccc(C)c1N(C(=O)CCl)[C@@H](C)COC` tested with Fusobacterium nucleatum subsp. animalis.
Found: 1.15

Lookup: Fill in growth AUC for `Cc1cc(C)c(C2=C(OC(=O)CC(C)(C)C)C3(CCCC3)OC2=O)c(C)c1` tested with Fusobacterium nucleatum subsp. animalis.
Found: 1.09

Lookup: Fill in growth AUC for `CCNc1nc(NC(C)C)[nH]c(=O)n1` tested with Fusobacterium nucleatum subsp. animalis.
Found: 1.06

Lookup: Fill in growth AUC for CCC(C)c1cc([N+](=O)[O-])cc([N+](=O)[O-])c1O (configuration not stated) tested with Fusobacterium nucleatum subsp. animalis.
Found: 0.737

Lookup: Fill in growth AUC for `COCC(=O)N(c1c(C)cccc1C)[C@@H](C)C(=O)OC` tested with Fusobacterium nucleatum subsp. animalis.
Found: 1.1

Lookup: Fill in growth AUC for CCC1COC(Cn2cncn2)(c2ccc(Cl)cc2Cl)O1 (configuration not stated) tested with Fusobacterium nucleatum subsp. animalis.
Found: 0.917

Lookup: Fill in growth AUC for CCc1cccc(C)c1N(C(=O)CCl)C(C)COC (configuration not stated) tested with Fusobacterium nucleatum subsp. animalis.
Found: 1.1

Lookup: Fill in growth AUC for `CNC(=O)N(C)c1nc2ccccc2s1` tested with Fusobacterium nucleatum subsp. animalis.
Found: 0.971

The measurements presented in this section are drawn from the supplement of paper PMC12669032.
